biological target: AMP deaminase 3 (Homo sapiens); assay: Inhibitory activity against porcine heart or recombinant human E-type AMPDA
Sequence (Q01432 whole entry): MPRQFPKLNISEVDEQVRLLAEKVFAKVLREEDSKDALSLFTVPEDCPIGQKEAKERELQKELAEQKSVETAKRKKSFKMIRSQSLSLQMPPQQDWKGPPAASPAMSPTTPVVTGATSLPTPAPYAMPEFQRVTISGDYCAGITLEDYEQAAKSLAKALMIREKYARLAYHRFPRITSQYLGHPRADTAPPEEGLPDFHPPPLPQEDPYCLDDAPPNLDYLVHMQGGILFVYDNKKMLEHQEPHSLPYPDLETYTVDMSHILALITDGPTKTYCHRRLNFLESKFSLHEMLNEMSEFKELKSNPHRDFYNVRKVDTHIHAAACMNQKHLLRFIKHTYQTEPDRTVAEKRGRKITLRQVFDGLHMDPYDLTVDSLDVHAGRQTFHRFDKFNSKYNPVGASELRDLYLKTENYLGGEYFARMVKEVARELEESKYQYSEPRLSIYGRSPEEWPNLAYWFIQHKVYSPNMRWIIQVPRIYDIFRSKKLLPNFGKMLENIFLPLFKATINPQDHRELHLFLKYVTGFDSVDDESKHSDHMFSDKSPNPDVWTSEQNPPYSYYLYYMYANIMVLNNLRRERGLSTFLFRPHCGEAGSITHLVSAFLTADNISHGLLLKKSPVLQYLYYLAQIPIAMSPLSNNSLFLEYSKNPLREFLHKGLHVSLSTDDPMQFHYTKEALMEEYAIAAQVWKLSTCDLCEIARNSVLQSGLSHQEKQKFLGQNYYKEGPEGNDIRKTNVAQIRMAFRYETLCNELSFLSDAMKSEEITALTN
Measurement Kind: Ki
The number alone won't do; follow it with the unit.

Please give the measured Ki for this molecule: CC(CCCCn1cnc2c1N=CNCC2O)(C(=O)O)C(=O)NCCc1ccccc1 (stereo not given)
2100 nM

# query: Ki of entry O=C(O)C(CCCCn1cnc2c1N=CNCC2O)C(=O)NCc1ccc(Cl)cc1 (stereo not given)
1300 nM

Could you tell me which Ki is on file for O=C(O)C(CCCCn1cnc2c1NC=NCC2O)C(=O)O (stereo not given) ?
5100 nM

Given the molecule CC(CCCCn1cnc2c1NC=NCC2O)(Cc1cccc(C(F)(F)F)c1)C(=O)O (stereo not given) , what is its reported Ki?
1200 nM

// returns reported Ki for input O=C(O)C(CCCCn1cnc2c1N=CNCC2O)C(=O)NCc1ccccc1 (stereo not given)
2400 nM

Name the reported Ki value associated with the molecule O=C(OCc1ccccc1)C(CCCCn1cnc2c1N=CNCC2O)(Cc1ccccc1C(F)(F)F)C(=O)OCc1ccccc1 (stereo not given)
250 nM

Given the entry CCOC(=O)C(C)(CCCCn1cnc2c1NC=NCC2O)C(=O)OCC (stereo not given) , report its measured Ki.
44800 nM

Item under review: CC(CCCCn1cnc2c1NC=NCC2O)(C(=O)O)C(=O)NC1CCCCC1 (stereo not given) . Reported Ki?
5200 nM

Ki lookup needed for CC(CCCCn1cnc2c1NC=NCC2O)(C(=O)O)C(=O)OCc1ccccc1 (stereo not given) , thanks.
900 nM

Which Ki reading was recorded for the molecule O=C(O)C(CCCCn1cnc2c1NC=NCC2O)(Cc1ccc(C(F)(F)F)cc1)C(=O)O (stereo not given) ?
40 nM

Param item = CC(CCCCn1cnc2c1NC=NCC2O)(C(=O)O)C(=O)O (stereo not given) ; retrieve measured Ki.
6000 nM

GET /values?readout=Ki&item= O=C(O)C(CCCCn1cnc2c1NC=NCC2O)(Cc1cccc(C(F)(F)F)c1)C(=O)O (stereo not given)
29 nM

For CC(CCCCn1cnc2c1NC=NCC2O)(C(=O)OCc1ccccc1)C(=O)OCc1ccccc1 (stereo not given) , what is its reported Ki?
5200 nM

Look at this molecule and give its reported Ki. O=C(O)C(CCCCn1cnc2c1N=CNCC2O)(Cc1ccccc1)C(=O)O (stereo not given)
170 nM

# get_value(readout='Ki', item= CCOC(=O)C(CCCCn1cnc2c1N=CNCC2O)(Cc1ccccc1)C(=O)OCC (stereo not given) )
2600 nM

Value lookup for Ki; key = O=C(O)C(CCCCn1cnc2c1NC=NCC2O)(Cc1ccccc1C(F)(F)F)C(=O)O (stereo not given)
41 nM

Fill in the blank: the reported Ki of O=C(O)C(CCCCn1cnc2c1N=CNCC2O)C(=O)OCc1ccccc1 (stereo not given) is ____.
360 nM

Fill in the blank: the reported Ki of CCOC(=O)C(CCCCn1cnc2c1N=CNCC2O)(Cc1ccccc1C(F)(F)F)C(=O)OCC (stereo not given) is ____.
360 nM

So what's the measured Ki for this one? O=C(O)CCCCCn1cnc2c1N=CNCC2O (stereo not given)
4200 nM

Fill in the blank: the reported Ki of CC(CCCCn1cnc2c1NC=NCC2O)(C(N)=O)C(=O)O (stereo not given) is ____.
7800 nM

Recorded values, source ChEMBL document CHEMBL1133163.
